# assay: ATG_PXRE_CIS: Attagene CIS-FACTORIAL HepG2 Assay for human Pregnane X Receptor Element (PXRE) (AID 2282957)
# conditions: HepG2 Attagene CIS-FACTORIAL PXRE reporter, mRNA; actives raise or lower the signal
Active and inactive are the calls of the source. The calls were made as follows: active = hit-call score of the fitted dose curve at least 0.9, where 1 is the maximum; inactive = score below 0.9.
Outcome field: choose from t for active, f for inactive

// query Assay result, entry CCC(C)(C)C1CCC(O)CC1 (stereo not drawn) — outcome?
// result t

// query Assay result, entry CCCCCCCCCCCCCCCS(=O)(=O)Oc1ccccc1 — outcome?
// result t

// query Assay result, entry CCCCCCCC(=O)O — outcome?
// result f

// query Assay result, entry CCCCCCCCCCCCCC[N+](C)(C)C — outcome?
// result f

// query Assay result, entry COc1cc(CCC(=O)CC(=O)CCc2ccc(O)c(OC)c2)ccc1O — outcome?
// result t

// query Assay result, entry CCCCC(CC)COC(=O)CCCCC(=O)OCc1ccccc1 (stereo not drawn) — outcome?
// result t

// query Assay result, entry CC(O)CO (stereo not drawn) — outcome?
// result f

// query Assay result, entry Cc1cc(CCN2CCN(c3nsc4ccccc34)CC2)cc2c1NC(=O)CC2(C)C — outcome?
// result t

// query Assay result, entry NCC(F)(F)C(F)(F)C(F)(F)C(F)(F)C(F)(F)C(F)(F)C(F)(F)F — outcome?
// result f

// query Assay result, entry C#C[C@]1(O)CC[C@H]2[C@@H]3CCC4=CC(=O)CC[C@@H]4[C@H]3CC[C@@]21C — outcome?
// result t

// query Assay result, entry Cc1cc(C)c(O)c(C)c1 — outcome?
// result f

// query Assay result, entry COc1ccc([N+](=O)[O-])cc1N — outcome?
// result f

// query Assay result, entry FC(F)(I)C(F)(F)C(F)(F)C(F)(F)C(F)(F)C(F)(F)I — outcome?
// result f

Reference source for all entries: PubChem BioAssay (EPA / NIEHS)
